# measurement-description: Test for resistance to light of the recorded images (carbon arc fade meter, Blue Scale JIS L-0841)
# Type: physicochemical
# conditions: ink jet print on ink jet paper A (Color BJ Paper LC 101, Canon), 20 hours carbon arc fade meter
# Experimental: A liquid having the following formulation was prepared and passed through a 0.45 μm membrane filter to obtain an aqueous ink composition for ink jet printers. […] The recorded images were irradiated with light for 20 hours by means of a carbon arc fade meter (ex. SUGA Shikenkisha). […]
endpoint: light fastness (rank) ink jet paper A
Just the number in rank, nothing appended.

[
  {
    "structure-notation": "COc1cc(N=Nc2cc(S(=O)(=O)O)cc3cc(S(=O)(=O)O)cc(O)c23)c(C)cc1N=Nc1c(S(=O)(=O)O)cc2ccc(N=Nc3ccc(N)cc3O)cc2c1O",
    "light fastness (rank) ink jet paper A": 4
  },
  {
    "structure-notation": "COc1cc(N=Nc2cc(S(=O)(=O)O)cc3cc(S(=O)(=O)O)cc(O)c23)c(NC(C)=O)cc1N=Nc1c(S(=O)(=O)O)cc2cc(S(=O)(=O)O)c(N=Nc3cc(S(=O)(=O)O)c(N)cc3N)cc2c1O",
    "light fastness (rank) ink jet paper A": 5
  }
]

Read the entry COCCOc1cc(N=Nc2cc(S(=O)(=O)O)cc3cc(S(=O)(=O)O)cc(O)c23)c(NC(C)=O)cc1N=Nc1c(S(=O)(=O)O)cc2ccc(N=Nc3ccc(N)cc3N)cc2c1O and write its reported light fastness (rank) ink jet paper A.
5

----------
# measurement-description: Test for resistance to water of the recorded images (immersion in water, visual examination of dropout)
# Format: physicochemical
# Set-up: key: ∘: Less amount of the compound was dropped out.; Δ: About half of the compound was dropped out.; X: Large amount of the compound was dropped out
# conditions: ink jet print on plain paper; immersed in water 2 minutes with mild stirring, dried
endpoint: water fastness plain paper

Consider the worked cases shown below.
[
  {
    "molecule": "COc1cc(N=Nc2cc(S(=O)(=O)O)cc3cc(S(=O)(=O)O)cc(O)c23)c(NC(C)=O)cc1N=Nc1c(S(=O)(=O)O)cc2ccc(N=Nc3cc(S(=O)(=O)O)c(N)cc3N)cc2c1O",
    "recorded-measurement": "Δ"
  },
  {
    "molecule": "COc1cc(N=Nc2cc(S(=O)(=O)O)cc3cc(S(=O)(=O)O)cc(O)c23)c(N)cc1N=Nc1c(S(=O)(=O)O)cc2ccc(N=Nc3cc(S(=O)(=O)O)c(N)cc3N)cc2c1O",
    "recorded-measurement": "◯"
  },
  {
    "molecule": "COc1cc(N=Nc2cc(S(=O)(=O)O)cc3cc(S(=O)(=O)O)cc(O)c23)c(NC(C)=O)cc1N=Nc1c(S(=O)(=O)O)cc2cc(S(=O)(=O)O)c(N=Nc3ccc(O)cc3O)cc2c1O",
    "recorded-measurement": "Δ˜◯"
  },
  {
    "molecule": "Nc1ccc2cc(S(=O)(=O)O)c(N=Nc3ccc(N=Nc4cc(C(=O)O)cc(C(=O)O)c4)c4ccccc34)c(O)c2c1 [compound 2, reference compound]",
    "recorded-measurement": "◯"
  },
  {
    "molecule": "COCCOc1cc(N=Nc2cc(S(=O)(=O)O)cc3cc(S(=O)(=O)O)cc(O)c23)c(N)cc1N=Nc1c(S(=O)(=O)O)cc2ccc(N=Nc3cc(S(=O)(=O)O)c(N)cc3N)cc2c1O",
    "recorded-measurement": "◯"
  }
]

Read the entry COc1cc(N=Nc2cc(S(=O)(=O)O)cc3cc(S(=O)(=O)O)cc(O)c23)c(C)cc1N=Nc1c(S(=O)(=O)O)cc2ccc(N=Nc3ccc(N)cc3O)cc2c1O and write its reported water fastness plain paper.
Δ˜◯

Read the entry COc1cc(N=Nc2cc(S(=O)(=O)O)cc3cc(S(=O)(=O)O)cc(O)c23)c(NC(C)=O)cc1N=Nc1c(S(=O)(=O)O)cc2cc(S(=O)(=O)O)c(N=Nc3cc(S(=O)(=O)O)c(N)cc3N)cc2c1O and write its reported water fastness plain paper.
Δ

----------
# measurement-description: Test for resistance to water of the recorded images (immersion in water, visual examination of dropout)
# Format: physicochemical
# conditions: ink jet print on ink jet paper A; immersed in water 2 minutes with mild stirring, dried

[
  {
    "structure-notation": "COc1cc(N=Nc2cc(S(=O)(=O)O)cc3cc(S(=O)(=O)O)cc(O)c23)c(N)cc1N=Nc1c(S(=O)(=O)O)cc2ccc(N=Nc3cc(S(=O)(=O)O)c(N)cc3N)cc2c1O",
    "water fastness ink jet paper A": "◯"
  },
  {
    "structure-notation": "COc1cc(N=Nc2cc(S(=O)(=O)O)cc3cc(S(=O)(=O)O)cc(O)c23)c(C)cc1N=Nc1c(S(=O)(=O)O)cc2ccc(N=Nc3ccc(N)cc3O)cc2c1O",
    "water fastness ink jet paper A": "◯"
  },
  {
    "structure-notation": "COCCOc1cc(N=Nc2cc(S(=O)(=O)O)cc3cc(S(=O)(=O)O)cc(O)c23)c(NC(C)=O)cc1N=Nc1c(S(=O)(=O)O)cc2ccc(N=Nc3ccc(N)cc3N)cc2c1O",
    "water fastness ink jet paper A": "◯"
  }
]

----------
# measurement-description: Test for resistance to water of the recorded images (immersion in water, visual examination of dropout)
# Assay type: physicochemical
# conditions: ink jet print on ink jet paper B; immersed in water 2 minutes with mild stirring, dried
endpoint: water fastness ink jet paper B

[
  {
    "structure-notation": "COc1cc(N=Nc2cc(S(=O)(=O)O)cc3cc(S(=O)(=O)O)cc(O)c23)c(C)cc1N=Nc1c(S(=O)(=O)O)cc2ccc(N=Nc3ccc(N)cc3O)cc2c1O",
    "water fastness ink jet paper B": "◯"
  },
  {
    "structure-notation": "COCCOc1cc(N=Nc2cc(S(=O)(=O)O)cc3cc(S(=O)(=O)O)cc(O)c23)c(NC(C)=O)cc1N=Nc1c(S(=O)(=O)O)cc2ccc(N=Nc3ccc(N)cc3O)cc2c1O",
    "water fastness ink jet paper B": "◯"
  },
  {
    "structure-notation": "COCCOc1cc(N=Nc2cc(S(=O)(=O)O)cc3cc(S(=O)(=O)O)cc(O)c23)c(N)cc1N=Nc1c(S(=O)(=O)O)cc2ccc(N=Nc3cc(S(=O)(=O)O)c(N)cc3N)cc2c1O",
    "water fastness ink jet paper B": "◯"
  },
  {
    "structure-notation": "COc1cc(N=Nc2cc(S(=O)(=O)O)cc3cc(S(=O)(=O)O)cc(O)c23)c(NC(C)=O)cc1N=Nc1c(S(=O)(=O)O)cc2cc(S(=O)(=O)O)c(N=Nc3ccc(N)cc3O)cc2c1O",
    "water fastness ink jet paper B": "◯"
  },
  {
    "structure-notation": "COc1cc(N=Nc2cc(S(=O)(=O)O)cc3cc(S(=O)(=O)O)cc(O)c23)c(N)cc1N=Nc1c(S(=O)(=O)O)cc2cc(S(=O)(=O)O)c(N=Nc3ccc(N)cc3O)cc2c1O",
    "water fastness ink jet paper B": "◯"
  }
]

Read the entry COc1cc(N=Nc2cc(S(=O)(=O)O)cc3cc(S(=O)(=O)O)cc(O)c23)c(N)cc1N=Nc1c(S(=O)(=O)O)cc2ccc(N=Nc3cc(S(=O)(=O)O)c(N)cc3N)cc2c1O and write its reported water fastness ink jet paper B.
◯

Read the entry COCCOc1cc(N=Nc2cc(S(=O)(=O)O)cc3cc(S(=O)(=O)O)cc(O)c23)c(NC(C)=O)cc1N=Nc1c(S(=O)(=O)O)cc2ccc(N=Nc3ccc(N)cc3N)cc2c1O and write its reported water fastness ink jet paper B.
◯

Read the entry COc1cc(N=Nc2cc(S(=O)(=O)O)cc3cc(S(=O)(=O)O)cc(O)c23)c(NC(C)=O)cc1N=Nc1c(S(=O)(=O)O)cc2cc(S(=O)(=O)O)c(N=Nc3cc(S(=O)(=O)O)c(N)cc3N)cc2c1O and write its reported water fastness ink jet paper B.
◯

Read the entry COc1cc(N=Nc2cc(S(=O)(=O)O)cc3cc(S(=O)(=O)O)cc(O)c23)c(C)cc1N=Nc1c(S(=O)(=O)O)cc2ccc(N=Nc3cc(S(=O)(=O)O)c(N)cc3N)cc2c1O and write its reported water fastness ink jet paper B.
◯

Read the entry COCCOc1cc(N=Nc2cc(S(=O)(=O)O)cc3cc(S(=O)(=O)O)cc(O)c23)c(NC(C)=O)cc1N=Nc1c(S(=O)(=O)O)cc2ccc(N=Nc3cc(S(=O)(=O)O)c(N)cc3N)cc2c1O and write its reported water fastness ink jet paper B.
◯

----------
# measurement-description: Test for resistance to water of the recorded images (immersion in water, visual examination of dropout)
# Format: physicochemical
# conditions: ink jet print on ink jet paper A; immersed in water 2 minutes with mild stirring, dried

[
  {
    "structure-notation": "COc1cc(N=Nc2cc(S(=O)(=O)O)cc3cc(S(=O)(=O)O)cc(O)c23)c(N)cc1N=Nc1c(S(=O)(=O)O)cc2cc(S(=O)(=O)O)c(N=Nc3ccc(N)cc3O)cc2c1O",
    "water fastness ink jet paper A": "◯"
  },
  {
    "structure-notation": "COc1cc(N=Nc2cc(S(=O)(=O)O)cc3cc(S(=O)(=O)O)cc(O)c23)c(NC(C)=O)cc1N=Nc1c(S(=O)(=O)O)cc2ccc(N=Nc3ccc(N)cc3O)cc2c1O",
    "water fastness ink jet paper A": "◯"
  },
  {
    "structure-notation": "COc1cc(N=Nc2cc(S(=O)(=O)O)cc3cc(S(=O)(=O)O)cc(O)c23)c(NC(C)=O)cc1N=Nc1c(S(=O)(=O)O)cc2ccc(N=Nc3ccc(O)cc3O)cc2c1O",
    "water fastness ink jet paper A": "◯"
  }
]
